# Assayed system: SpHof1-2
# Test description: SPOT peptide array binding signal intensity (averaged, normalized) (arbitrary units (background-subtracted, floor 0; scale differs between SH3 domains)); higher = stronger binding of the SH3 domain to the peptide
Lab note: compare SPOT peptide array binding signal intensity against 6. Equal or greater, write 1 (yes). Smaller, write 0 (no).

Reported SPOT peptide array binding signal intensity reaches at least 6 for DHPKGPPPPPPPDEK ? 1 (yes)

Cool, now PAPPPPPRASRPTPN 0 (no)

Same again, this time with RVTRKRPREPKSTND 0 (no)

Entry to check: RPVPRRPSQPLNTLS 1 (yes)

Please answer likewise for NPLPKEPRLPKRKVA 1 (yes)

Request: HGKRRAPLLLAKLDV 0 (no)

Next binder up: NLDRSKISLPDFDDE 0 (no)
